Entries and their IC50 values follow.
study target: Glycine receptor (alpha-1/beta) (Homo sapiens, UniProt P23415+P48167)
Sequence (P23415 whole entry): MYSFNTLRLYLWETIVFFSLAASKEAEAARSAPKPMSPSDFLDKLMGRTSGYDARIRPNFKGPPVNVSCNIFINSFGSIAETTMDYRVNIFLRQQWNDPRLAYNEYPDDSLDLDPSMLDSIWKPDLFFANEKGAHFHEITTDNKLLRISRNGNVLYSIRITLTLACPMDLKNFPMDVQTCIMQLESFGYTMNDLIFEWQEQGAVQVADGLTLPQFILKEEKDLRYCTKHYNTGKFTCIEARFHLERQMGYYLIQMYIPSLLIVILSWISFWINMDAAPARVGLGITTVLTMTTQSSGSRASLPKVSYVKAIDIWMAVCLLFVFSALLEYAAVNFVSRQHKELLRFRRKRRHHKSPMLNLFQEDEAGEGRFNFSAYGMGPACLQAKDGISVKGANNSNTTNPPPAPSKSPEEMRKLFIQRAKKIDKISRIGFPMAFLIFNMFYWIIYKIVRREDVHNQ
Sequence (P48167 whole entry): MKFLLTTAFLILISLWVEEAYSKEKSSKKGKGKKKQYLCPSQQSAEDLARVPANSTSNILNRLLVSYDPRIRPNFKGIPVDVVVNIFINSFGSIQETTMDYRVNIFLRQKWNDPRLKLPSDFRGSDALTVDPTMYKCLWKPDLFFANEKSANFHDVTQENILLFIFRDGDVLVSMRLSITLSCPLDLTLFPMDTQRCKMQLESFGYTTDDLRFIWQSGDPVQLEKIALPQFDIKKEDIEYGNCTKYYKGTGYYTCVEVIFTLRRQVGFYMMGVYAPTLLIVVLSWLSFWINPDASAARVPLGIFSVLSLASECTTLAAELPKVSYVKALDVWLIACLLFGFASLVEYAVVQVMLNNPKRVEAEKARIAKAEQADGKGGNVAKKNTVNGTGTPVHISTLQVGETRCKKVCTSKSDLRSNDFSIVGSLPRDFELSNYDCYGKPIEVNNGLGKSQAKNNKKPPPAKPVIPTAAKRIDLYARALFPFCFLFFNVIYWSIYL
assay text: Antagonist activity at human glycine receptor subunit alpha-1beta expressed in human tsA201 cells assessed as reduction in glycine-induced response incubated for 30 mins by fluorescence-based FLIPR membrane potential blue assay
Type: cell-based
assay conditions: read-out: IC50
experimental endpoint: IC50 (µM)

>>> recorded_number("O=C(CCCCCCCCCCCCCCC(=O)NCC(=O)Nc1ccc2c(c1)[C@@]13CCN4CC5=CCO[C@H]6CC(=O)N2[C@H]1[C@H]6[C@H]5C[C@H]43)NCC(=O)Nc1ccc2c(c1)[C@@]13CCN4CC5=CCO[C@H]6CC(=O)N2[C@H]1[C@H]6[C@H]5C[C@H]43")
2.2
>>> recorded_number("O=C(CCCC(=O)Nc1ccc2c(c1)[C@@]13CCN4CC5=CCO[C@H]6CC(=O)N2[C@H]1[C@H]6[C@H]5C[C@H]43)Nc1ccc2c(c1)[C@@]13CCN4CC5=CCO[C@H]6CC(=O)N2[C@H]1[C@H]6[C@H]5C[C@H]43")
30
>>> recorded_number("O=C(CCCCCCCCC(=O)NCC(=O)Nc1ccc2c(c1)[C@@]13CCN4CC5=CCO[C@H]6CC(=O)N2[C@H]1[C@H]6[C@H]5C[C@H]43)NCC(=O)Nc1ccc2c(c1)[C@@]13CCN4CC5=CCO[C@H]6CC(=O)N2[C@H]1[C@H]6[C@H]5C[C@H]43")
0.88
